Δ OD 590 nm = OD590 (time = 16 hours) − OD590 (time zero), Mean for assorted molecules
tested on: Escherichia coli (E. coli—ATCC #10536); experiment: Automated assessment of efficacy in model surfactant base (2.85% sodium cocoyl glycinate + 1.85% sodium lauroamphoacetate, pH 10), 15 seconds exposure, delta OD450/OD590 in D/E quench; assay type: cell-based; conditions: single active at […] w/v
measure-name: Δ OD 590 nm = OD590 (time = 16 hours) − OD590 (time zero), Mean

                                 molecule  experimental_result
0                       Cc1ccc(C(C)C)cc1O                 0.64
1  CCC1CCC(C(CO)CO)CC1 (centres unmarked)                 0.56
2                         CCCCc1ccc(O)cc1                 0.54
3                          CCCc1cccc(O)c1                 0.56
4                            CCCc1ccccc1O                 0.66

====

tested on: Escherichia coli (E. coli—ATCC #10536); assay: Automated assessment of efficacy in model surfactant base (2.85% sodium cocoyl glycinate + 1.85% sodium lauroamphoacetate, pH 10), 15 seconds exposure, delta OD450/OD590 in D/E quench; type: cell-based; settings: single active at 0.2% w/v
measure-name: Δ OD 590 nm = OD590 (time = 16 hours) − OD590 (time zero), Mean

In [3]: df
Out[3]:
                                   compound  experimental_result
0  Cc1ccc(C(C)C)cc1O [5-isopropyl-2-methylphenol]                 0.62
1  CC(C)(C)c1cccc(O)c1 [3-tert-butylphenol]                 0.64
2  C/C=C/c1ccccc1O [(E)-2-(prop-1-enyl)phenol]                 0.63
3         CCCc1cccc(O)c1 [3-n-propylphenol]                 0.56
